Can you tell me inhibition of SARS-CoV-2 cytopathic effect for the items I'm about to list?
test system: Vero E6 infected with SARS-CoV-2; assay: inhibition of SARS-CoV-2 cytopathic effect; higher = more antiviral protection, active = above 15; settings: 8.33 nM; 48 h
One number for each entry, in %.

compound	target.desc	unit.tag	measurement
CC(CCc1ccc(O)cc1)NCCc1ccc(O)c(O)c1 (configuration not stated)	Vero E6 infected with SARS-CoV-2	%	-2.55

Please look at the items below and tell me inhibition of SARS-CoV-2 cytopathic effect for each one, in order.
1. CC(=O)OCC1=C(C(=O)O)N2C(=O)[C@@H](NC(=O)CS/C(=N/C(C)C)NC(C)C)[C@H]2SC1
2. O=C(OCC(COC(=O)c1cccnc1)(COC(=O)c1cccnc1)COC(=O)c1cccnc1)c1cccnc1
3. CC(C)Oc1cccc(CC(=O)N2CCC[C@](CC[N+]34CCC(c5ccccc5)(CC3)CC4)(c3ccc(Cl)c(Cl)c3)C2)c1
4. OCCN(CCO)c1nc(N2CCCCC2)c2nc(N(CCO)CCO)nc(N3CCCCC3)c2n1

**Result**
[-0.04, -0.29, 0.54, 1.83]

Please look at the items below and tell me inhibition of SARS-CoV-2 cytopathic effect for each one, in order.
1. CC(C)(C)[C@H]1CC[C@H](CC2=C(O)C(=O)c3ccccc3C2=O)CC1
2. CCCn1c(=O)c2[nH]c(C3CCCC3)nc2n(CCC)c1=O
3. Cc1nc(C)c(Cl)c(O)c1Cl

**Result**
1. 3.57
2. 2.47
3. -1.24

Please look at the items below and tell me inhibition of SARS-CoV-2 cytopathic effect for each one, in order.
1. CC(=O)OC/C=C(C)/C=C/C=C(C)/C=C/C1=C(C)CCCC1(C)C [retinyl-acetate]
2. O=C(NCCNCC(O)COc1ccc(O)cc1)N1CCOCC1 (configuration not stated)
3. Fc1ccc(-c2c3cccc(C(F)(F)F)c3nn2Cc2ccc(F)cc2Cl)cc1
4. CN1CCC[C@@H](CC2c3ccccc3Sc3ccccc32)C1 (racemic)
5. CN(C(=O)Cc1ccc(Cl)c(Cl)c1)[C@H](CN1CCCC1)c1ccccc1
6. CCN1C(C)(C)CC(Oc2ccc(C(=O)Nc3ccc(NC(=O)Nc4cc(C(C)(C)C)on4)cc3)nc2)CC1(C)C
7. O=C(Nc1ccc([N+](=O)[O-])cc1Cl)c1cc(Cl)ccc1O [niclosamide]
8. c1ccc2c(c1)sc1ccccc12

**Result**
[0.37, -0.88, -3.42, 1.09, 6.47, -0.55, -2.63, 1.31]

---

system: Vero E6 infected with SARS-CoV-2; experiment: morphology score (similarity to uninfected cells); higher = more like uninfected cells; settings: 24 h
Label scheme for morphology score: lower than 0.09 is not met, 0.09 and above is met.

Previously resolved entries follow.
compound	assigned.label
O=C(O)/C=C/c1ccc(-c2ccc(O)c(C34CC5CC(CC(C5)C3)C4)c2)cc1 [adarotene] (10 µM)	not met
CCn1c(=O)[nH]c2cc(Cl)c(Cl)cc21 (10 µM)	met
CN1C[C@H](C(=O)N[C@]2(C)O[C@@]3(O)[C@@H]4CCCN4C(=O)[C@H](Cc4ccccc4)N3C2=O)C[C@@H]2c3cccc4[nH]cc(c34)C[C@H]21 [dihydroergotamine] (10 µM)	not met
CC(=O)O[C@@H]1CC[C@@]2(C)[C@@H](CC[C@]3(C)[C@@H]2C(=O)C=C2[C@@H]4[C@@H](C)[C@H](C)CC[C@]4(C)CC[C@]23C)[C@@]1(C)C(=O)O [acetyl-11-keto-beta-boswellic-acid] (10 µM)	met

**Query** Confirm if morphology score reported for the compound CC(C)(Oc1ccc(C(=O)c2ccc(Cl)cc2)cc1)C(=O)O [fenofibric-acid] (10 µM) is 0.09 or above.
**Result** met

**Query** Confirm if morphology score reported for the compound CC1OC2(CS1)CN1CCC2CC1 (stereo unspecified) [cevimeline] (10 µM) is 0.09 or above.
**Result** not met

**Query** Confirm if morphology score reported for the compound CCN(CC)C(C)C(=O)c1ccccc1 (stereo unspecified) [amfepramone] (10 µM) is 0.09 or above.
**Result** not met

**Query** Confirm if morphology score reported for the compound N#C/C(=C\c1cn(-c2ccccc2)c2ccccc12)C(=O)O (10 µM) is 0.09 or above.
**Result** not met

**Query** Confirm if morphology score reported for the compound CCOc1cc(OCC)c(C(=O)CCC(=O)O)cc1OCC [trepibutone] (10 µM) is 0.09 or above.
**Result** not met

---

test system: Vero E6 infected with SARS-CoV-2; assay: SARS-CoV-2 infection rate relative to infected DMSO; higher = more infection, active = 60 or less; conditions: 24 h
experimental.endpoint: SARS-CoV-2 infection rate (%)
One number for each entry, in %.

In [3]: df
Out[3]:
                                   compound  unit_tag  measurement
0  Cc1cnc(Nc2ccc(OCCN3CCCC3)cc2)nc1Nc1cccc(S(=O)(=O)NC(C)(C)C)c1 [fedratinib] (0.833333 µM)         %         99.5
1  COc1cc2ncnc(Nc3ccc(Cl)cc3F)c2cc1OC (10 µM)         %          117
2  O=C(Nc1ccncc1)c1cc([N+](=O)[O-])ccc1Cl (10 µM)         %           87
3  N#Cc1cccc(-c2nc(-c3cccnc3)no2)c1 (10 µM)         %         98.5
4  Cc1ccccc1/N=N/c1ccc(/N=N/c2c(O)ccc3ccccc23)c(C)c1 [sudan-IV] (10 µM)         %           92
5  Cc1cc(N2CCOCC2)ccc1Nc1nc(NC2CCCCC2)c2nc[nH]c2n1 (10 µM)         %         90.5

Please look at the items below and tell me SARS-CoV-2 infection rate for each one, in order.
1. O=C1NC(c2cccc([N+](=O)[O-])c2)=CCN1c1ccccc1O [icilin] (10 µM)
2. CCOC(=O)c1ncn2c1CN(C)C(=O)c1cc(N=[N+]=[N-])ccc1-2 (10 µM)
3. O=C(O)c1ccc(NC(=O)[C@H](Cc2ccc(O)cc2)NC(=O)c2ccccc2)cc1 [bentiromide] (10 µM)

**Result**
100
110
106

---

test system: Vero E6 infected with SARS-CoV-2; test: inhibition of SARS-CoV-2 cytopathic effect; higher = more antiviral protection, active = above 15; conditions: 8.33 nM; 48 h
Can you tell me inhibition of SARS-CoV-2 cytopathic effect for the items I'm about to list?

Please look at the items below and tell me inhibition of SARS-CoV-2 cytopathic effect for each one, in order.
1. CC(C)(C)c1ccc(O)cc1 [4-tert-butylphenol]
2. C[C@@H]1NC(=O)[C@@H](N)CNC(=O)[C@H](C2CCNC(=N)N2)NC(=O)/C(=C/NC(N)=O)NC(=O)[C@H](CNC(=O)CC(N)CCCN)NC1=O.N=C1NCC[C@H]([C@@H]2NC(=O)/C(=C/NC(N)=O)NC(=O)[C@H](CNC(=O)C[C@@H](N)CCCN)NC(=O)[C@H](CO)NC(=O)[C@@H](N)CNC2=O)N1 [capreomycin]
3. O=C1NC(=O)[C@@]2(CCOc3ccc(F)cc32)N1 [sorbinil]

**Result**
1: 1.9% (inactive); 2: -0.28% (inactive); 3: -2.13% (inactive)

---

tested on: Vero E6 infected with SARS-CoV-2; assay: inhibition of SARS-CoV-2 cytopathic effect; higher = more antiviral protection, active = above 15; details: 833.33 nM; 48 h
experimental.endpoint: inhibition of SARS-CoV-2 cytopathic effect (%)
Numbers only, in %.

Reference set (2 entries):
                                   molecule  measurement
0  CC(C)[C@]12O[C@H]1[C@@H]1O[C@]13[C@]1(O[C@H]1C[C@H]1C4=C(CC[C@@]13C)C(=O)OC4)[C@@H]2O [triptolide]        -9.06
1  C#Cc1cccc(Nc2ncnc3cc(OCCOC)c(OCCOC)cc23)c1 [erlotinib]        -4.63

Please look at the items below and tell me inhibition of SARS-CoV-2 cytopathic effect for each one, in order.
1. COc1cccc(N(C)C(=S)Oc2ccc3c(c2)CCCC3)n1 [liranaftate]
2. C[C@]12CC[C@H]3[C@@H](CCC4=CC(=O)CC[C@@H]43)[C@@H]1CC[C@@H]2O [Nandrolone]
3. CC(C)(F)C[C@H](N[C@@H](c1ccc(-c2ccc(S(C)(=O)=O)cc2)cc1)C(F)(F)F)C(=O)NC1(C#N)CC1 [odanacatib]
4. CCn1nc(C(=O)O)c(=O)c2cc3c(cc21)OCO3 [cinoxacin]
5. CCOC(=O)C1=C[C@]2(CC)CCCN3CCc4c(n1c1ccccc41)[C@@H]32 [vinpocetine]

**Result**
-0.32
1.95
-1.8
0.12
1.98

Lab note: CNC(=O)c1ccc2cc([C@@]3(O)CCn4cncc43)ccc2c1 [orteronel] gave inhibition of SARS-CoV-2 cytopathic effect of 3.1
